Taken from paper PMC5380139.

tested.on: LipL (Streptomyces sp.)
Sequence (D4QF25 whole entry): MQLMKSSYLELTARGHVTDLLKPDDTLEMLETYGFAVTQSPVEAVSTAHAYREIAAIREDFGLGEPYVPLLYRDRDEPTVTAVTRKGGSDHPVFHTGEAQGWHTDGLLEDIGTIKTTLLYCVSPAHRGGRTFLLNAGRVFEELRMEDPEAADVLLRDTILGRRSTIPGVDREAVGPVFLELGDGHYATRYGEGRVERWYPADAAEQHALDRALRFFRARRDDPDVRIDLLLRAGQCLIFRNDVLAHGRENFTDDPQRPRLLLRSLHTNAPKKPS
readout: Ki (nM)
Entry rule: numbers only, all in nM.

Query block: # get_value(readout='Ki', item= O=c1ccn([C@@H]2O[C@H](CCP(=O)(O)O)[C@@H](O)[C@H]2O)c(=O)[nH]1 [UMcP, 5′-deoxyuridine-5′-methylphosphonate] )
Result block: 800
